Please respond with reported IC50 for every item in the list.
ASSAY TARGET: Kynurenine--oxoglutarate transaminase 1 (Homo sapiens, UniProt Q16773)
Sequence (Q16773 whole entry): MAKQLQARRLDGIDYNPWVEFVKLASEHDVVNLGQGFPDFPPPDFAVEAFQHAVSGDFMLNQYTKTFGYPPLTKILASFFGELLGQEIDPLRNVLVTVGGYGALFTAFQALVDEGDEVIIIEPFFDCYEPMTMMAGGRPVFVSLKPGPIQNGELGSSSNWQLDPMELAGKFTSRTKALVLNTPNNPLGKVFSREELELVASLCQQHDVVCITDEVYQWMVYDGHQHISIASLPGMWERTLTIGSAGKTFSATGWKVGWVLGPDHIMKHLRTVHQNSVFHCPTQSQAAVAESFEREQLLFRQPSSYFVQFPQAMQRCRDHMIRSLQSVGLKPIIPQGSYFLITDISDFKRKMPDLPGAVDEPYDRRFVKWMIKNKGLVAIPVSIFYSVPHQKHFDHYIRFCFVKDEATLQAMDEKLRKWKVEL
ASSAY DETAILS: Inhibition of human recombinant KAT1 after 20 mins by RP-HPLC analysis

Recorded IC50 for COc1ccc2[nH]c(C(=O)O)c(CCC(=O)O)c2c1 with Kynurenine--oxoglutarate transaminase 1 (Homo sapiens, UniProt Q16773), please?
> 6000 µM

Recorded IC50 for CCOC(=O)/C(CCCC(=O)O)=N\Nc1ccc(I)cc1 with Kynurenine--oxoglutarate transaminase 1 (Homo sapiens, UniProt Q16773), please?
34 µM

Recorded IC50 for Cc1ccc2[nH]c(C(=O)O)c(CCC(=O)O)c2c1 with Kynurenine--oxoglutarate transaminase 1 (Homo sapiens, UniProt Q16773), please?
> 1000 µM
